All values here come from patent US20240043504A1.

- measurementTarget: Human SARS Coronavirus Spike S1 Subunit Protein (His Tag) (Sino 40150-V08B1) (Human SARS Coronavirus, UniProt P59594 14-667)
- experiment: Luminex, supernatant
observedProperty: MFI (MFI)

>  <binder>
mAb10920 (antibody, V domains shown) VH: QVQLVESGGGVVQPGRSLRLSCAASGFTFSYYGMHWVRQAPGKGLEWVAVIWYDGSNKFYADSVKGRFTISRDNSKNTLYLQMNSLRAEDTAVYYCAAARPGYYYGMDVWGQGTTVTVSS VL: DIQMTQSPSSLSASVGDRVTITCRASQGISNYLAWFQQKPGKAPNSLIYAASSLQRGVPSKFSGSGSGTDFTLTISSLQPEDFATYYCQQYNSYPRTFGQGTKVEIKR

>  <observedProperty>
MFI

>  <measValue>
26

$$$$
